Every entry's value here was drawn from ChEMBL document CHEMBL1833867.

Biological target: Cannabinoid receptor 2 (Mus musculus, UniProt P47936)
Sequence (P47936 whole entry): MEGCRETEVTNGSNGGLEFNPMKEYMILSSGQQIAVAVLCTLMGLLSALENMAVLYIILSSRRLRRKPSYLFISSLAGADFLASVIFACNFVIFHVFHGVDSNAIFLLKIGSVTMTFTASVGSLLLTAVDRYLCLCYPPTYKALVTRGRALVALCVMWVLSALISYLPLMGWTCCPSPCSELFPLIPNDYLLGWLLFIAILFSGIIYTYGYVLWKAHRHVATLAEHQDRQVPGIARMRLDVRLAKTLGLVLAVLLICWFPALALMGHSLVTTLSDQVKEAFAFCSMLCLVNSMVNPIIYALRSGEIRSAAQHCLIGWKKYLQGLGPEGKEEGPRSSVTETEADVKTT
pKi: −log10 of the molar value.
Label criterion met for high-side pKi (at or above 6) and criterion not met for low-side pKi (below it).

>>> df
                         compound_structure                        measurement_target              class
0  N#Cc1c(C(F)(F)F)ccc2c1oc1c(OS(=O)(=O)CCCC(F)(F)F)cccc12  Cannabinoid receptor 2 (Mus musculus, UniProt P47936)      criterion met
1  N#Cc1c(C(F)(F)F)ccc2c1oc1ccc(OS(=O)(=O)CCCC(F)(F)F)cc12  Cannabinoid receptor 2 (Mus musculus, UniProt P47936)  criterion not met
2  N#Cc1c(C(F)(F)F)ccc2c1oc1cc(OS(=O)(=O)CCCC(F)(F)F)ccc12  Cannabinoid receptor 2 (Mus musculus, UniProt P47936)      criterion met

====

Item-by-item account of Ratio Ki
Test: Selectivity ratio of Ki for rat cannabinoid CB1 receptor to Ki for human cannabinoid CB2 receptor
Reported metric: Ratio Ki

In [3]: df
Out[3]:
                         compound_structure  result
0  N#Cc1c(C(F)(F)F)ccc2c1oc1ccc(OS(=O)(=O)CCCC(F)(F)F)cc12    0.76
1  N#Cc1c(C(F)(F)F)ccc2c1oc1c(OS(=O)(=O)CCCC(F)(F)F)cccc12       9
2  N#Cc1c(Oc2cccc(OS(=O)(=O)CCCC(F)(F)F)c2)cccc1C(F)(F)F    1.21
3  N#Cc1c(C(F)(F)F)ccc2c1oc1cccc(OS(=O)(=O)CCCC(F)(F)F)c12    1.05
4  N#Cc1c(C(F)(F)F)ccc2c1Oc1c(cccc1OS(=O)(=O)CCCC(F)(F)F)C2    12.4
5  N#Cc1c(C(F)(F)F)ccc2c1oc1cc(OS(=O)(=O)CCCC(F)(F)F)ccc12    3.35

====

Biological target: Cannabinoid receptor 1 (Rattus norvegicus, UniProt P20272)
Sequence (P20272 whole entry): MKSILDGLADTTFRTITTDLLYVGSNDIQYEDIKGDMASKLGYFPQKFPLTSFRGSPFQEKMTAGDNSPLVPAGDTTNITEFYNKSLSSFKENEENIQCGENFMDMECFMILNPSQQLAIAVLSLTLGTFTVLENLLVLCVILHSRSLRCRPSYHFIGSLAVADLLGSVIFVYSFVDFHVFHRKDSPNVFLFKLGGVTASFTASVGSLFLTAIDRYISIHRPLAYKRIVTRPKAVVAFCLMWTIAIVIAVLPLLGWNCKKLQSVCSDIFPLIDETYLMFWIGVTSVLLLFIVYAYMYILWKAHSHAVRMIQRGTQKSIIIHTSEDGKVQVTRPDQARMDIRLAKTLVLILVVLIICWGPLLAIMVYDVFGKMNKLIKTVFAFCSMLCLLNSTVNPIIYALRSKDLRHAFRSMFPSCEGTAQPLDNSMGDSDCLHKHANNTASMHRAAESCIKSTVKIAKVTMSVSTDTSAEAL
Label key: y means Ki under 3 µM; n means Ki of 3 µM or more.

>>> df
                         compound_structure  class
0  N#Cc1c(C(F)(F)F)ccc2c1Oc1c(cccc1OS(=O)(=O)CCCC(F)(F)F)C2      n
1  N#Cc1c(C(F)(F)F)ccc2c1oc1cc(OS(=O)(=O)CCCC(F)(F)F)ccc12      y
2  N#Cc1c(C(F)(F)F)ccc2c1oc1c(OS(=O)(=O)CCCC(F)(F)F)cccc12      y
3  N#Cc1c(C(F)(F)F)ccc2c1oc1cccc(OS(=O)(=O)CCCC(F)(F)F)c12      y
4  N#Cc1c(C(F)(F)F)ccc2c1oc1ccc(OS(=O)(=O)CCCC(F)(F)F)cc12      y
